Recorded values, source patent US20160257697A1.

Tested on: HCV replicon 1A
Test: microbe, parasite or virus in culture
Type: cell-based, Hepatitis C virus (HCV)
Conditions: HCV replicon 1A; Replicon Assay A
Record form. Attribute: IC50. Fill in for each entry.
Give the quantity in pM, number only.

Note IC50 for the molecule shown: COC(=O)N[C@H](C(=O)N1CCC[C@H]1c1ncc(-c2ccc3c(c2)OC(c2ccc(C4CC4)s2)n2c-3c(F)c3cc(-c4cnc([C@@H]5CCCN5C(=O)[C@@H](NC(=O)OC)C(C)C)[nH]4)ccc32)[nH]1)C(C)C (single isomer, unassigned) [Compound 605]
1.7

Note IC50 for the molecule shown: COC(=O)N[C@H](C(=O)N1CCC[C@H]1c1ncc(-c2cc(F)c3c(c2)OC(c2ccc(C4CC4)s2)n2c-3cc3cc(-c4cnc([C@@H]5C[C@H]6C[C@H]6N5C(=O)[C@@H](NC(=O)OC)C5CCOCC5)[nH]4)ccc32)[nH]1)C(C)C (single isomer, unassigned)
1.2

Note IC50 for the molecule shown: COC(=O)N[C@H](C(=O)N1CCC[C@H]1c1ncc(-c2cc(F)c3c(c2)OC(c2ccc(C4(C)CC4)s2)n2c-3cc3cc(-c4cnc([C@@H]5CCCN5C(=O)[C@@H](NC(=O)OC)C(C)C)[nH]4)ccc32)[nH]1)C(C)C (single isomer, unassigned) [Compound 836]
2.1
